Hello, the source for this data is patent US11873336, in case you need it.

Target: T1, human CD22 on CD22-positive Burkitt's lymphoma cells (Daudi, Raji, Ramos) (human, UniProt P20273 20-847)
T1 construct: whole, on cells; also called CD22+ cells; CD22 positive cells
T1 sequence (looked up): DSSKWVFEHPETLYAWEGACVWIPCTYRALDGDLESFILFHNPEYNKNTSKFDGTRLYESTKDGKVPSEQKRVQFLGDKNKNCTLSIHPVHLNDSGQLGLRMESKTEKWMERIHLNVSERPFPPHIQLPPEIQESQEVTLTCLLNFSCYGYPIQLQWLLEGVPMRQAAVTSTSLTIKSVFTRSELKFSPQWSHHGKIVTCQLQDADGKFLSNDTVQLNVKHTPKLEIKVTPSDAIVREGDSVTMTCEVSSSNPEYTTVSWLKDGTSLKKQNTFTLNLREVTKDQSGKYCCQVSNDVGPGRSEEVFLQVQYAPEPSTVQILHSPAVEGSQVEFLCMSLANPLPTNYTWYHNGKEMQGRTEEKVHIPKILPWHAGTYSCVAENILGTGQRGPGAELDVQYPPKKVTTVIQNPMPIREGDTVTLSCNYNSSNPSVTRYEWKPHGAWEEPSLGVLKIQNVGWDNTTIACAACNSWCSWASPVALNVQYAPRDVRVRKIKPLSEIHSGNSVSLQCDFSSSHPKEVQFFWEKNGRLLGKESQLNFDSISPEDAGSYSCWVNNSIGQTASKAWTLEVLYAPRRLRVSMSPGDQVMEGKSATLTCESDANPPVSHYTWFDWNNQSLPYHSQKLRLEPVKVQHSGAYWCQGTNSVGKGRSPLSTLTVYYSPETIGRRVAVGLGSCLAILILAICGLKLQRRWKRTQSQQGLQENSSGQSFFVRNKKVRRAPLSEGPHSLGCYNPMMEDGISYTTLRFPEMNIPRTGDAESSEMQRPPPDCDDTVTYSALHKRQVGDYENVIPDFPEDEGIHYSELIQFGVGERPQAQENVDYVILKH
Assay: cell binding, Daudi cells
experimentalEndpoint: binding result

anti-CD22 heavy chain-only antibody with the VH of SEQ ID NO: 48 (antibody, V domains shown, Heavy chain-only antibody (UniAb), human IgG) VH: QLQLQESGPGLVKPSETLSLTCTVSGDSISSGDYYWGWIRHPPGKGLEWIGHIYYSGATYYNPSLKNRVTISVDTSKNQFSLKLSSVTAADTAVYYCTREDSSSWRSRGQGTLVTVSS ... binds
anti-CD22 heavy chain-only antibody with the VH of SEQ ID NO: 41 (antibody, V domains shown, Heavy chain-only antibody (UniAb), human IgG) VH: QLQLQESGPGLVKPSETLSLTCTVSGDSISSGDYYWGWIRQPPGKGLEWIGHIYYSGATYYNPSLKNRVTISVDTSRNQFSLKLSSVTAADTAVYYCTREDSSNWRSRGQGTLVTVSS ... binds
